Biological target: T1, macaca fascicularis (mf) PRLR.mmh (soluble monomeric monkey PRLR) (Macaca fascicularis)
T1 construct: called soluble monomeric PRLR protein
T1 chain: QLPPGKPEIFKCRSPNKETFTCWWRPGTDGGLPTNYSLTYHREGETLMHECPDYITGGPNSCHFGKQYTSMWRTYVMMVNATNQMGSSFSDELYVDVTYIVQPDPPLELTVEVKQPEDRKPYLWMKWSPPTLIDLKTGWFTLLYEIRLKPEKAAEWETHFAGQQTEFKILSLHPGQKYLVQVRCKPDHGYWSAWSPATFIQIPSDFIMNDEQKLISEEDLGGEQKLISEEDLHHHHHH
Test: SPR Biacore, 25 C, mAb capture

BINDER: H1H6975N (antibody, human IgG1, V domains shown, Tested with human IgG1 Fc (H1H); also called H2M6975N) VH: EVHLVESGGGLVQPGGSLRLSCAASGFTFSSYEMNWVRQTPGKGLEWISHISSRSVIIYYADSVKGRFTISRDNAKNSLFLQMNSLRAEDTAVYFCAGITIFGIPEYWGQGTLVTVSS VL: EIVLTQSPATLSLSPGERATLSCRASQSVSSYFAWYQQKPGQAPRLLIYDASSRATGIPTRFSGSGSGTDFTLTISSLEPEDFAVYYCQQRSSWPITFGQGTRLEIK
kon [M⁻¹ s⁻¹]: 115000
--
BINDER: H1H6785P (antibody, human IgG1, V domains shown, Human IgG1 Fc (H1H)) VH: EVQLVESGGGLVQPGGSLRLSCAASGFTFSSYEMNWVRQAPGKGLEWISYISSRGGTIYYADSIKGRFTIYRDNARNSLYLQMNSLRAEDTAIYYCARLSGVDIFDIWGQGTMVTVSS VL: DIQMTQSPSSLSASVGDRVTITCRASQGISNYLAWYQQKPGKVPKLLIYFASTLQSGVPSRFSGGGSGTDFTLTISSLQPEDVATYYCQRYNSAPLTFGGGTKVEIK
kon [M⁻¹ s⁻¹]: 227000

Values compiled from patent US20180185504A1.
